# Assay Protocol: Plasma protein binding, equilibrium dialysis, human plasma
# Type: in vitro ADME
# Assay Conditions: undiluted plasma, Tables 1 and 3, human plasma as printed in footnote, read-out: fup, fraction unbound in human plasma
Measured Parameter: fraction unbound at 4 h, 100 µM
The answer should be written as a number, with no unit following it.

O=P(O)(O)CP(=O)(O)OC[C@H]1O[C@@H](n2ccc3c(-c4cc5ccccc5c5ccccc45)ncnc32)[C@H](O)[C@@H]1O | 0.31

Problem: Value lookup for fraction unbound at 4 h, 100 µM; key = O=P(O)(O)CP(=O)(O)OC[C@H]1O[C@@H](n2ccc3c(-c4ccnc5ccccc45)ncnc32)[C@H](O)[C@@H]1O
Result: 0.8

----------
# Assay Protocol: Plasma protein binding, equilibrium dialysis, human plasma
# Format: in vitro ADME
# Assay Conditions: undiluted plasma, human plasma protein binding, read-out: PPB (hu) (converted)
Measured Parameter: fraction unbound at 4 h, 100 µM
Give the value as a plain number.

Answered cases to consult:
O=P(O)(O)CP(=O)(O)OC[C@H]1O[C@@H](n2ccc3c(-c4cc5ccccc5c5ccccc45)ncnc32)[C@H](O)[C@@H]1O | 0.013
O=P(O)(O)CP(=O)(O)OC[C@H]1O[C@@H](n2ccc3c(-c4ccc5ccccc5c4)nc(F)nc32)[C@H](O)[C@@H]1O [14D.7] | 0.024

# ---- query molecule ----
Problem: What value of measured fraction unbound at 4 h, 100 µM is listed for Cc1nc(-c2cccc3ccccc23)c2ccn([C@@H]3O[C@H](COP(=O)(O)CP(=O)(O)O)[C@@H](O)[C@H]3O)c2n1 [18E.6] ?
Result: 0.045

----------
# Assay Protocol: in vitro
# Assay Conditions: human, plasma
Item-by-item account of half-life at 10 µM

O=P(O)(O)CP(=O)(O)OC[C@H]1O[C@@H](n2cnc3c(-c4cccc5c4CCCC5)ncnc32)[C@H](O)[C@@H]1O [31A.12] | > 2 h

Problem: What half-life at 10 µM value was documented for this compound, O=P(O)(O)CP(=O)(O)OC[C@H]1O[C@@H](n2ccc3c(-c4ccc5cc(O)ccc5c4)nc(Cl)nc32)[C@H](O)[C@@H]1O ?
Result: > 2 h

Problem: Which half-life at 10 µM value is on record for O=P(O)(O)CP(=O)(O)OC[C@H]1O[C@@H](n2ccc3c(-c4ccc5ncccc5c4)ncnc32)[C@H](O)[C@@H]1O ?
Result: > 2 h

----------
# Assay Protocol: In vivo pharmacokinetic study, intravenous
# Set-up: species or system male CD-1 mice
# Assay Conditions: mouse, plasma, 1 mg/kg; male CD-1 mice, intravenous, single dose; read-out: Cl (obs), observed clearance
Measured Parameter: clearance (mL/min/kg)
Kindly provide the numeric value in mL/min/kg only, without the unit symbol.

Problem: Endpoint output: clearance of O=P(O)(O)CP(=O)(O)OC[C@H]1O[C@@H](n2ccc3c(-c4ccc5ccccc5c4)nc(Cl)nc32)[C@H](O)[C@@H]1O [7B.7] . Value?
Result: 8.3

Problem: // query clearance value for entry O=P(O)(O)CP(=O)(O)OC[C@H]1O[C@@H](n2ccc3c(-c4cccc5ccccc45)nc(F)nc32)[C@H](O)[C@@H]1O [14D.6]
Result: 1.3

Problem: Please report the recorded clearance for O=P(O)(O)CP(=O)(O)OC[C@H]1O[C@@H](n2ccc3c(-c4ccc5cc(Cl)ccc5c4)nc(Cl)nc32)[C@H](O)[C@@H]1O [7B.27] .
Result: 6.7

Problem: Returns the measured clearance for the input compound. Input: O=P(O)(O)CP(=O)(O)OC[C@H]1O[C@@H](n2ccc3c(-c4ccco4)nc(Cl)nc32)[C@H](O)[C@@H]1O [7B.1]
Result: 8.3

Problem: GET /values?readout=clearance&item= O=P(O)(O)CP(=O)(O)OC[C@H]1O[C@@H](n2ccc3c(-c4cccc5c4CCCC5)nc(Cl)nc32)[C@H](O)[C@@H]1O [7B.12]
Result: 0.88

Problem: clearance lookup needed for O=P(O)(O)CP(=O)(O)OC[C@H]1O[C@@H](n2ccc3c(-c4ccccc4)ncnc32)[C@@H](F)[C@@H]1O [34A.5] , thanks.
Result: 3.3

----------
# Assay Protocol: Plasma protein binding, mouse plasma
# Format: in vitro ADME
# Assay Conditions: mouse, plasma, mouse plasma protein binding; read-out: PPB (m) (converted)
Note to self: fraction unbound at 4 h, 100 µM under 0.4 means TRUE, ties and anything higher get FALSE.

CC1(C)Cc2cc(-c3nc(Cl)nc4c3ccn4[C@@H]3O[C@H](COP(=O)(O)CP(=O)(O)O)[C@@H](O)[C@H]3O)ccc2O1 [7B.30] | TRUE

Pending compound:
Problem: Is it true that fraction unbound at 4 h, 100 µM reported for O=P(O)(O)CP(=O)(O)OC[C@H]1O[C@@H](n2ccc3c(-c4ccoc4)ncnc32)[C@H](O)[C@@H]1O [4A.2] is less than 0.4?
Result: FALSE

----------
# Assay Protocol: Kinetic solubility in PBS
# Assay type: physicochemical
# Assay Conditions: phosphate-buffered saline, pH 7.4, aqueous buffer, kinetic from dmso stock
Measured Parameter: solubility at 2 h (µM)
# value in µM; strip the unit string

O=P(O)(O)CP(=O)(O)OC[C@H]1O[C@@H](n2ccc3c(-c4ccc5ccccc5c4)ncnc32)[C@@H](F)[C@@H]1O [34A.7] | 82
O=P(O)(O)CP(=O)(O)OC[C@H]1O[C@@H](n2ccc3c(-c4cccc5ccccc45)ncnc32)[C@H](O)[C@@H]1O [4A.6] | 62
O=P(O)(O)CP(=O)(O)OC[C@H]1O[C@@H](n2cnc3c(-c4ccc5ccccc5c4)ncnc32)[C@H](O)[C@@H]1O [31A.7] | 86

Next, consider the following compound.
Problem: Field request: solubility at 2 h | item: O=P(O)(O)CP(=O)(O)OC[C@H]1O[C@@H](n2ccc3c(-c4cccs4)ncnc32)[C@H](O)[C@@H]1O [4A.3]
Result: 76

----------
# Assay Protocol: Plasma protein binding, equilibrium dialysis, human plasma
# Type: in vitro ADME
# Assay Conditions: undiluted plasma, Table 6, human plasma, read-out: fup, fraction unbound in human plasma
fraction unbound at 4 h, 100 µM reference
// response body must contain only the number

Take a look at these entries with their results.
O=P(O)(O)CP(=O)(O)OC[C@H]1O[C@@H](n2ccc3c(-c4ccc(F)c5ccccc45)ncnc32)[C@@H](F)[C@@H]1O [34A.23] | 0.001
O=P(O)(O)CP(=O)(O)OC[C@H]1O[C@@H](n2ccc3c(-c4ccc5ccccc5c4)ncnc32)[C@@H](F)[C@@H]1O [34A.7] | 0.002
O=P(O)(O)CP(=O)(O)OC[C@H]1O[C@@H](n2ccc3c(-c4cccc5ccccc45)ncnc32)[C@@H](F)[C@@H]1O [34A.6] | 0.017
O=P(O)(O)CP(=O)(O)OC[C@H]1O[C@@H](n2ccc3c(-c4ccccc4)ncnc32)[C@@H](F)[C@@H]1O [34A.5] | 0.022
O=P(O)(O)CP(=O)(O)OC[C@H]1O[C@@H](n2ccc3c(-c4ccnc5ccccc45)ncnc32)[C@@H](F)[C@@H]1O [34A.28] | 0.014
O=P(O)(O)CP(=O)(O)OC[C@H]1O[C@@H](n2ccc3c(-c4cccc5c4CCCC5)ncnc32)[C@@H](F)[C@@H]1O [34A.12] | 0.007

Problem: For the molecule shown here, O=P(O)(O)CP(=O)(O)OC[C@H]1O[C@@H](n2ccc3c(-c4ccc5c(c4)CCCC5)ncnc32)[C@@H](F)[C@@H]1O [34A.17] , give the reported fraction unbound at 4 h, 100 µM.
Result: 0.05

----------
# key: entry, value: clearance
# Assay Protocol: In vivo pharmacokinetic study, intravenous
# Parameters: species or system male CD-1 mice
# Assay Conditions: male, CD-1, mouse, plasma, iv, 1 mg/kg; in vivo PK in mice, unit inferred; read-out: clearance
Numbers only; they are read as mL/min/kg.

Consider the following illustrative entries.
O=P(O)(O)CP(=O)(O)OC[C@H]1O[C@@H](n2ccc3c(-c4cccc5ccccc45)ncnc32)[C@H](O)[C@@H]1O | 1.4
O=P(O)(O)CP(=O)(O)OC[C@H]1O[C@@H](n2ccc3c(-c4ccc5ccccc5c4)ncnc32)[C@H](O)[C@@H]1O | 4.1

Problem: Form field: reported clearance of O=P(O)(O)CP(=O)(O)OC[C@H]1O[C@@H](n2ccc3c(-c4cccc5c4CCCC5)ncnc32)[C@H](O)[C@@H]1O
Result: 2.1

----------
# Target Under Test: recombinant human CD73 (hCD73) (Homo sapiens, UniProt P21589)
# Sequence (P21589 27-574): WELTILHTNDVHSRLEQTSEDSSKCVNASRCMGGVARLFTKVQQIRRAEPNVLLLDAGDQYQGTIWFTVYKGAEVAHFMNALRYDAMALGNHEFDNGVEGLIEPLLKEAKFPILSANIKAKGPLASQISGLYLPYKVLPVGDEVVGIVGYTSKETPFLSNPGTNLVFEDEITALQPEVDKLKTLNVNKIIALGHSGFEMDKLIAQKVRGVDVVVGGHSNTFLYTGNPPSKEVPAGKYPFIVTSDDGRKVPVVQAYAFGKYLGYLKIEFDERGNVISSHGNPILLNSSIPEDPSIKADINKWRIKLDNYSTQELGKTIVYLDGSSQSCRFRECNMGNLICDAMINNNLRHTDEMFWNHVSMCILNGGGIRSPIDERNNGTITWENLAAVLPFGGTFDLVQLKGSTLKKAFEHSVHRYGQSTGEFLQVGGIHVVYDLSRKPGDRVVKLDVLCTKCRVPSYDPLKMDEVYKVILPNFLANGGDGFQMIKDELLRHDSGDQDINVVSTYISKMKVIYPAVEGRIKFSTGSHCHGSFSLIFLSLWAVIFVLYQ
# Assay Protocol: CD73 activity assay on recombinant human CD73
# Assay type: biochemical
# Assay Conditions: ΔGexp = RT ln Ki
Measured Parameter: dG_exp, experimental binding free energy

O=P(O)(O)CP(=O)(O)OC[C@H]1O[C@@H](n2ccc3c(-c4ccc5c(c4)CCCC5)ncnc32)[C@@H](F)[C@@H]1O [34A.17] | –11.8 kcal/mol
O=P(O)(O)CP(=O)(O)OC[C@H]1O[C@@H](n2ccc3c(-c4cccc5ccccc45)ncnc32)[C@@H](F)[C@@H]1O [34A.6] | –11.8 kcal/mol
